The following molecules each carry a recorded IC50 for p38α (Homo sapiens, UniProt Q16539).

| Chemical String | IC50 |
| --- | --- |
| Cc1ccc(C(=O)NC2(C)CC2)cc1-c1ccn2c(-c3ccc(F)cc3C)nnc2c1 | 25 to 100 nM |
| Cc1ccc(C(=O)NC2CC2)cc1-c1ccn2c(-c3cccc(S(C)(=O)=O)c3)nnc2c1 | 25 to 100 nM |
| Cc1ccc(C(=O)NC2(C)CC2)cc1-c1ccn2c(-c3ccc(S(C)(=O)=O)cc3)nnc2c1 | 25 to 100 nM |
| Cc1ccc(C(=O)Nc2ccnn2C)cc1-c1ccn2c(-c3sccc3C)nnc2c1 | < 25 nM |

====

Tested on: THP1 cells
Test: Lipopolysaccharide-activated THP1 cell TNF production assay
Assay type: cell-based, human
Conditions: Homo sapiens, THP-1; LPS-induced TNF-α production in THP1 cells
Measure Name: IC50

| Compound | Reported Value |
| --- | --- |
| Cc1ccc(C(=O)Nc2ccnn2C)cc1-c1cc2nnc(-c3ccccc3Cl)n2cc1C [Example 36] | < 25 nM |
| Cc1ccc(C(N)=O)cc1-c1ccn2c(-c3ccccc3Cl)nnc2c1 [Example 44] | 25 to 100 nM |
| Cc1ccc(C(=O)NC2CC2)cc1-c1ccn2c(Cc3ccccc3)nnc2c1 [Example 89] | 100 to 250 nM |
| Cc1ccc(C(=O)Nc2ccnn2C)cc1-c1ccn2c(-c3cccc(F)c3Cl)nnc2c1 [Example 41] | < 25 nM |
| Cc1ccc(C(=O)NC2CC2)cc1-c1ccn2c(-c3cccnc3C)nnc2c1 [Example 34] | 25 to 100 nM |
| Cc1c(F)cc(C(=O)NC2CC2)cc1-c1ccn2c(-c3c(Cl)cccc3Cl)nnc2c1 [Example 59] | < 25 nM |
| Cc1ccc(C(=O)Nc2ccnn2C)cc1-c1ccn2c(-c3ccccc3F)nnc2c1 [Example 30] | 25 to 100 nM |
| Cc1ccc(C(=O)NC2CC2)cc1-c1ccn2c(N3CCCC3)nnc2c1 [Example 96] | 25 to 100 nM |

====

Tested on: THP1 cells
Assay: Lipopolysaccharide-activated THP1 cell TNF production assay
Type: cell-based, human
Settings: Homo sapiens, THP-1; LPS-induced TNF-α production in THP1 cells
pIC50: −log10 of the molar value.

| Chemical String | pIC50 |
| --- | --- |
| Cc1ccc(C(=O)NC2CC2)cc1-c1ccn2c(-c3ccccc3C)nnc2c1 | 7.00 to 7.60 |
| Cc1ccc(C(=O)NC2CC2)cc1-c1ccn2c(C(C)(C)C)nnc2c1C | 7.00 to 7.60 |
| Cc1ccc(C(=O)NC2CC2)cc1-c1ccn2c(-c3c(F)cccc3F)nnc2c1 | > 7.60 |
| Cc1ccc(C(=O)NC2CC2)cc1-c1ccn2c(N3CCOCC3)nnc2c1 | 6.60 to 7.00 |
| Cc1ccc(C(=O)NC2(C)CC2)cc1-c1ccn2c(-c3ccc(S(C)(=O)=O)cc3)nnc2c1 | 6.00 to 6.60 |
| Cc1ccc(C(=O)Nc2ccnn2C)cc1-c1ccn2c(-c3cc(F)c(F)cc3Cl)nnc2c1 | 7.00 to 7.60 |
| Cc1cccc(Cl)c1-c1nnc2cc(-c3cc(C(=O)NC4CC4)cc(F)c3C)ccn12 | > 7.60 |
| Cc1ccc(C(=O)NC2CC2)cc1-c1ccn2c(-c3ccccc3Cl)nnc2c1 | > 7.60 |
